Biological target: 3×FLAG-NLuc-BRD9 (Nano luciferase-BRD9 fusion protein) in SYO-1 cells (Homo sapiens (Human))
Sequence (Q9H8M2 whole entry, the tested form may be a part): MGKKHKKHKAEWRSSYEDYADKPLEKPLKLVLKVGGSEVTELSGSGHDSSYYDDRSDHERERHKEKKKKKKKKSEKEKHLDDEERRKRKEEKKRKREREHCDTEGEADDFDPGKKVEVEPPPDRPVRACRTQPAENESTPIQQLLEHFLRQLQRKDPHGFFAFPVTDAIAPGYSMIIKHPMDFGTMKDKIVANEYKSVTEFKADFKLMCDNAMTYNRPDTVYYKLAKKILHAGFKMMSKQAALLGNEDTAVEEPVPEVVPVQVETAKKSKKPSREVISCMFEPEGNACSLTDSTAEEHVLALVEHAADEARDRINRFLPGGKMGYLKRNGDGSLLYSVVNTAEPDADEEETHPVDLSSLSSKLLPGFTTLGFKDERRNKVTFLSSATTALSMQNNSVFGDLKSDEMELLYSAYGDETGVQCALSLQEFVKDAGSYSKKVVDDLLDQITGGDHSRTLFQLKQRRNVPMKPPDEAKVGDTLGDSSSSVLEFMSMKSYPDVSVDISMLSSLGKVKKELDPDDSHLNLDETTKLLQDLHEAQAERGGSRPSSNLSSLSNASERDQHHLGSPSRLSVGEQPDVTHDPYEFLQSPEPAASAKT
Assay: SYO1 BRD9 NanoLuc degradation assay
Assay type: cell-based
Conditions: Table 5B; SYO-1 cells expressing 3×FLAG-NLuc-BRD9, 6 hours incubation; read-out: SYO1 BRD9-NanoLuc degradation IC50
assay_metric: DC50

Observe how each entry below is paired with its result.
[[record]]
molecule = "COc1cc(-c2cn(C)c(=O)c3cnccc23)cc(OC)c1CN1CCC2(CC1)CCN(C(=O)CCC#Cc1ccc3c(c1)C(=O)N(C1CCC(=O)NC1=O)C3=O)C2 (stereo not shown)"
experimental_value = "< 10 nM"

[[record]]
molecule = "COc1cc(-c2cn(C)c(=O)c3cnccc23)cc(OC)c1CN(C)CCCCN1CC2(CCN(c3ccc4c(c3)C(=O)N(C3CCC(=O)NC3=O)C4=O)C2)C1 (stereo not shown)"
experimental_value = "10 to 100 nM"

[[record]]
molecule = "COc1cc(-c2cn(C)c(=O)c3cnccc23)cc(OC)c1CN1CC(n2cc(COCc3ccc4c(c3)C(=O)N(C3CCC(=O)NC3=O)C4=O)nn2)C1 (stereo not shown)"
experimental_value = "< 10 nM"


// switching to the query molecule
// lookup DC50 for COc1cc(-c2cn(C)c(=O)c3cnccc23)cc(OC)c1CN(C)CCCCNC1CC2(CCN(c3ccc4c(c3)C(=O)N(C3CNC(=O)CC3=O)C4=O)CC2)C1 (stereo not shown)
< 10 nM
